Test system: SF-268
Assay: NCI tumour cell line growth inhibition, 48 h
Active and inactive are the calls of the source. Cut-off read from the data, not from the text of the source: active = GI50 up to about 1.1 µM and inactive = higher.
Observable: GI50

The compound listed as Cc1ccc(C(=O)/C=C/N2CCN(c3cccc(C(F)(F)F)c3)CC2)cc1 has a reported GI50 of 17.3 µM (inactive)

The compound listed as CC(=O)C1=C(C)NC2C=CC=CN12 (configuration not stated) has a reported GI50 of > 100 µM (inactive)

The compound listed as Oc1[nH]c(Nc2cccc(Br)c2)nc2ncnc1-2 has a reported GI50 of 56.4 µM (inactive)

The compound listed as COc1ccc(C2=NN(C(=O)c3ccc(Cl)cc3)C(O)(c3cc(F)c(Cl)cc3Cl)C2)cc1 (configuration not stated) has a reported GI50 of > 100 µM (inactive)

The compound listed as C[N+](C)(C)CC1CCCCCCCCCCC1=O (configuration not stated) has a reported GI50 of > 100 µM (inactive)

The compound listed as CCCN(CCC)C1=Nc2ccccc2-n2cnnc2C1 has a reported GI50 of > 100 µM (inactive)

The compound listed as C[N+](C)(C)CC1CCCCC1O (configuration not stated) has a reported GI50 of > 100 µM (inactive)

Just for reference, ChEMBL document CHEMBL1201862 is where these values come from.
